Target: CanAg antigen (human) (UniProt P15941)
Test: flow cytometry on CanAg positive Colo205 cells, AF488 anti-human IgG secondary, MFI curve
binders and their reported EC50

Known EC50 results, listed for orientation:
HC2 + LC1 (antibody, human IgG1, kappa, V domains shown) VH: QVQLVQSGAEVKKPGASVKVSCKASDYTFTYYGMNWVRQAPGQGLEWMGWIDTTTGEPSYAQKFQGRVTFTLDTSASTVYMELSSLRSEDTAVYYCARRGPYNWYFDVWGQGTLVTVSS VL: DIVMTQTPLSLPVTPGEPASISCRSSKSLLHSNGNTYLYWYLQKPGQSPQLLIYRMSNRASGVPDRFSGSGSGTDFTLKISRVEAEDVGVYYCLQHLEYPFTFGPGTKVDIKR ... 0.351 µg/mL
HC3 + LC2 (antibody, human IgG1, kappa, V domains shown) VH: QVQLVQSGAEVKKPGASVKVSCKASDYTFTYYGINWVRQATGQGLEWMGWIDTTTGEPTYAQKFQGRVTFTLETSISTAYMELSSLRSEDTAVYYCARRGPYNWYFDVWGAGTLVTVSS VL: DIVMTQSPLSLPVTPGEPASISCRSSKSLLHSNGNTYLYWYLQKPGQSPQLLIYRMSNLASGVPDRFSGSGSGTDFTLKISRVEAEDVGVYYCLQHLEYPFTFGPGTKVDIKR ... 0.327 µg/mL

Switching to the query record.
Req: Item HC1 + LC1 (antibody, human IgG1, kappa, V domains shown) VH: QVQLVQSGAEVKKPGASVKVSCKASDYTFTYYGINWVRQAPGQGLEWMGWIDTTTGEPNYAQKLQGRVTFTLDTSASTAYMELRSLRSDDTAVYYCARRGPYNWYFDVWGQGTLVTVSS VL: DIVMTQTPLSLPVTPGEPASISCRSSKSLLHSNGNTYLYWYLQKPGQSPQLLIYRMSNRASGVPDRFSGSGSGTDFTLKISRVEAEDVGVYYCLQHLEYPFTFGPGTKVDIKR has what recorded EC50?
Resp: 0.274 µg/mL
